target: Grb2 SH2 (UniProt P62993); assay: SH2 binding enrichment of the phosphorylated peptide, bacterial display (enrichment ratio); higher = better substrate or ligand; peptides without Tyr show the background;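 note: peptide library displayed on the E. coli surface as eCPX fusions, selected cells deep-sequenced, score is each peptide's frequency after selection divided by its frequency in the input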
measured_quantity: SH2 binding enrichment

Worked set:
QMEKICTQQIQ [CCNB1IP1_Y125_Y125C]: 0.834
YDGKDYIALKE [HLA-A_Y147_N151K]: 0.891
AALKLYHVSDS [VIL1_Y256]: 0.613

1: TTKVSYRASQP [MKI67_Y1737]
2: KRLFAYKMLMA [TMC2_Y209_Q205R_YF]
Between 1 and 2 , which one has the lower reported SH2 binding enrichment value? Kindly give the label for the entry you pick.
1
(1: 0.962, 2: 2.05)

a: NLSVPYDSSLK [ABCC8_Y1353_R1352P]
b: RTLIRYAKLGN [BEST1_Y131_N133K]
Between a and b , which one has the lower reported SH2 binding enrichment value? Kindly give the label for the entry you pick.
a
(a: 0.765, b: 1.14)
